Target: B-Raf (V600E)-kinase (Homo sapiens (Human), UniProt P15056, V600E)
Sequence (P15056 whole entry V600E): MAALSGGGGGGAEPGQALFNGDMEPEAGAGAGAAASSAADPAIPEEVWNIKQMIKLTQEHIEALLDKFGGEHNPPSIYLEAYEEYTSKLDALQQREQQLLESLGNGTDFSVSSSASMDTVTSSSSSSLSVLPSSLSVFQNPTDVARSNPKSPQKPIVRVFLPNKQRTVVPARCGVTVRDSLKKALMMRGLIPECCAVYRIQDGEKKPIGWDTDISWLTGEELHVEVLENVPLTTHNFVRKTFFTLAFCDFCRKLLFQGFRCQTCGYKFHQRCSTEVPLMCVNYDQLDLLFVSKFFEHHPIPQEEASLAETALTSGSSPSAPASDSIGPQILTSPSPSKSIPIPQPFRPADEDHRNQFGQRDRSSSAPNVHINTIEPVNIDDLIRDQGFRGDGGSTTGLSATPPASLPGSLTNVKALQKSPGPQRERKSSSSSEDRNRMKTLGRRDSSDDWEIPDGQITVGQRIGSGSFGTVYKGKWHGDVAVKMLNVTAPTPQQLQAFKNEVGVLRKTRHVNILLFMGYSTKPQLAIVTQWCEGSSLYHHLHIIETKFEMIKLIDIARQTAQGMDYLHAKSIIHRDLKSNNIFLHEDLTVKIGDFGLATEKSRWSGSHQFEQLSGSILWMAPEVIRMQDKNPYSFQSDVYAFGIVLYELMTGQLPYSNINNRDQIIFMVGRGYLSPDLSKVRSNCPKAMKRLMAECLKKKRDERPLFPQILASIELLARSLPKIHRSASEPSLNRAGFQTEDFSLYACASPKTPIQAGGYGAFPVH
Experiment: Kinase test B-Raf (V600E)
Conditions: 1 h preincubation, 250 μM ATP
pIC50: −log10 of the molar value.
measure_name: pIC50

Some entries whose results are on file:
Cc1ccc(NC(=O)c2cc(CNC(C)(C)C)c(C(C)(C)C)o2)cc1-n1cc(-c2cncc(N3CCOCC3)c2)nn1 [II-40]
7.96
Cc1ccc(C(=O)Nc2cc(C(C)(C)C)on2)cc1-n1cc(-c2cncc(NC3CC3)c2)nn1 [I-28]
8.00
Cc1ccc(C(=O)Nc2cc(C(C)(C)C)on2)cc1-n1cc(-c2cncc(N3CCC(N4CCN(C(C)C)CC4)C3)c2)nn1 (centres unmarked) [I-92]
8.10
Cc1ccc(C(=O)Nc2cc(C(C)(C)C)on2)cc1-n1cc(-c2cncc(N3CCN(C(C)C)CC3)c2)nn1 [I-44]
7.96
Cc1ccc(NC(=O)c2cc(CNC(C)C)c(C(C)(C)C)o2)cc1-n1cc(-c2cncc(N3CCOCC3)c2)nn1 [II-2]
7.85

I = Cc1ccc(C(=O)Nc2cc(C(C)(C)C)on2)cc1-n1cc(-c2cncc(N3CCC3)c2)nn1 [I-19]
II = Cc1ccc(NC(=O)c2cc(C(F)(F)F)ccn2)cc1-n1cc(-c2cncc(N3CCN(C)CC3)c2)nn1 [II-7]
Q: For the pair I and II , which entry has the numerically smaller recorded pIC50? I would appreciate it if you answered with the label of your choice.
A: I

a = Cc1ccc(C(=O)Nc2cc(C(C)(C)C)on2)cc1-n1cc(-c2cncc(N3CCCN(C(C)C)CC3)c2)nn1 [I-52]
b = Cc1ccc(C(=O)Nc2cc(C(F)(F)F)ccn2)cc1-n1cc(-c2cncc(N3C[C@@H]4C[C@H]3CN4C)c2)nn1 [I-82]
c = COCC(C)Nc1cncc(-c2cn(-c3cc(C(=O)Nc4cc(C(C)(C)C)on4)ccc3C)nn2)c1 (centres unmarked) [I-20]
d = COCCN(C)c1cncc(-c2cn(-c3cc(C(=O)Nc4cc(C(C)(C)C)on4)ccc3C)nn2)c1 [I-53]
Q: Reorder: pIC50, max to min. List the labels according to the requested ordering.
A: b, d, a, c

P = Cc1ccc(C(=O)Nc2cc(C(C)(C)C)on2)cc1-n1cc(-c2cncc(N(C)C3CCOC3)c2)nn1 (centres unmarked) [I-10]
Q = C=CCN1CCN(c2cncc(-c3cn(-c4cc(C(=O)Nc5cc(C(C)(C)C)on5)ccc4C)nn3)c2)CC1 [I-6]
Q: For the pair P and Q , which entry has the numerically smaller recorded pIC50? I would appreciate it if you answered with the label of your choice.
A: Q

A = CCN1CCN(c2cncc(-c3cn(-c4cc(C(=O)Nc5cc(C(F)(F)F)ccn5)ccc4C)nn3)c2)CC1 [I-87]
B = Cc1ccc(C(=O)Nc2cc(C(F)(F)F)ccn2)cc1-n1cc(-c2cncc(N3C[C@@H]4C[C@H]3CN4)c2)nn1 [I-71]
Q: For the pair A and B , which entry has the numerically smaller recorded pIC50? I would appreciate it if you answered with the label of your choice.
A: A

A = Cc1ccc(C(=O)Nc2cc(C(C)(C)C)on2)cc1-n1cc(-c2cncc(N3CC(C)NC(C)C3)c2)nn1 (centres unmarked) [I-32]
B = Cc1ccc(C(=O)Nc2cc(C(C)(C)C)on2)cc1-n1cc(-c2cncc(N3CCN(C4CC4)CC3)c2)nn1 [I-26]
Q: For the pair A and B , which entry has the numerically smaller recorded pIC50? I would appreciate it if you answered with the label of your choice.
A: B

I = Cc1ccc(NC(=O)c2cc(C)n(C(C)(C)C)n2)cc1-n1cc(-c2cncc(N3CCN(C(C)C)CC3)c2)nn1 [II-36]
II = Cc1ccc(C(=O)Nc2cc(C(C)(C)C)on2)cc1-n1cc(-c2cncc(N3CCN(C)CC3)c2)nn1 [I-1]
Q: Sort I and II by pIC50 descending and give the first. I would appreciate it if you answered with the label of your choice.
A: II
(II: 8.10, I: 7.89)

---

Target: B-Raf (V600E)-kinase (Homo sapiens (Human), UniProt P15056, V600E)
Test: Kinase test B-Raf (V600E)
Conditions: 1 h preincubation, 250 μM ATP
measure_name: IC50 (nM)

Some entries whose results are on file:
Cc1ccc(C(=O)Nc2cc(C(C)(C)C)on2)cc1-n1cc(-c2cncc(N3CCOCC3)c2)nn1
10
Cc1ccc(C(=O)Nc2cc(C(F)(F)F)ccn2)cc1-n1cc(-c2cncc(N(C)CCN(C)C)c2)nn1
10
Cc1ccc(NC(=O)c2ccc(C(C)(C)C)o2)cc1-n1cc(-c2cncc(N3CCN(C(C)(C)C)CC3)c2)nn1
3
Cc1ccc(NC(=O)c2ccc(C(C)(C)C)o2)cc1-n1cc(-c2cncc(N3CCN(C)CC3)c2)nn1
2
COCCN1CCN(c2cncc(-c3cn(-c4cc(C(=O)Nc5cc(C(F)(F)F)ccn5)ccc4C)nn3)c2)CC1
11
Cc1ccc(C(=O)Nc2cc(C(C)(C)C)on2)cc1-n1cc(-c2cncc(N3CCC(N(C)C)CC3)c2)nn1
12
Cc1ccc(C(=O)Nc2cc(C(C)(C)C)on2)cc1-n1cc(-c2cncc(N3CCCOCC3)c2)nn1
16
Cc1ccc(C(=O)Nc2cc(C(C)(C)C)on2)cc1-n1cc(-c2cncc(N3CCN(C(C)(C)C)CC3)c2)nn1
12

A = Cc1ccc(NC(=O)c2cc(C)n(C(C)(C)C)n2)cc1-n1cc(-c2cncc(N3CCOCC3)c2)nn1
B = Cc1ccc(NC(=O)c2cc(C(C)(C)C)nn2C)cc1-n1cc(-c2cncc(N3CCOCC3)c2)nn1
C = Cc1ccc(C(=O)Nc2cc(C(F)(F)F)ccn2)cc1-n1cc(-c2cncc(N(C)C3CCOCC3)c2)nn1
Q: Order the records, beginning with the lowest IC50 and ending with the highest. List the labels according to the requested ordering.
A: B, A, C

I = Cc1ccc(C(=O)Nc2cc(C(C)(C)C)on2)cc1-n1cc(-c2cncc(N3CCN(CCN4CCOCC4)CC3)c2)nn1
II = Cc1ccc(C(=O)Nc2cc(C(C)(C)C)on2)cc1-n1cc(-c2cncc(N3CCCCC3)c2)nn1
III = CCCN1CCN(c2cncc(-c3cn(-c4cc(C(=O)Nc5cc(C(C)(C)C)on5)ccc4C)nn3)c2)CC1
IV = Cc1ccc(C(=O)Nc2cc(C(C)(C)C)on2)cc1-n1cc(-c2cncc(N3CCN(C)C(C)C3)c2)nn1 (stereo not shown)
V = CCN1CCN(c2cncc(-c3cn(-c4cc(NC(=O)c5ccc(C(C)(C)C)o5)ccc4C)nn3)c2)CC1
Q: Reorder: IC50, max to min. List the labels according to the requested ordering.
A: II, IV, I, III, V
(II: 61 nM, IV: 21 nM, I: 14 nM, III: 8 nM, V: 3 nM)

a = CCCN1CCN(c2cncc(-c3cn(-c4cc(NC(=O)c5cc(C)n(C(C)(C)C)n5)ccc4C)nn3)c2)CC1
b = Cc1ccc(C(=O)Nc2cc(C(C)(C)C)nn2C)cc1-n1cc(-c2cncc(N3CCN(C)CC3)c2)nn1
c = Cc1ccc(NC(=O)c2cc(CN(C)CCN(C)C)c(C(C)(C)C)o2)cc1-n1cc(-c2cncc(N3CCOCC3)c2)nn1
d = Cc1ccc(C(=O)Nc2cc(C(C)(C)C)on2)cc1-n1cc(-c2cncc(N3CCN(CC(F)(F)F)CC3)c2)nn1
Q: Reorder: IC50, max to min. List the labels according to the requested ordering.
A: d, c, b, a

1 = Cc1ccc(C(=O)Nc2cc(C(C)(C)C)on2)cc1-n1cc(-c2cncc(N3CCN(C4CCCC4)CC3)c2)nn1
2 = Cc1ccc(NC(=O)c2ccc(C(C)(C)C)o2)cc1-n1cc(-c2cncc(N3CCOCC3)c2)nn1
Q: For the pair 1 and 2 , which entry has the numerically smaller recorded IC50? I would appreciate it if you answered with the label of your choice.
A: 2
(2: 9 nM, 1: 14 nM)

---

Biological target: B-Raf (V600E)-kinase (Homo sapiens (Human), UniProt P15056, V600E)
Assay: Kinase test B-Raf (V600E)
Details: 1 h preincubation, 250 μM ATP
pIC50: −log10 of the molar value.
measure_name: pIC50

Cc1ccc(NC(=O)c2ccc(C(C)(C)C)s2)cc1-n1cc(-c2cncc(N3CCN(C(C)(C)C)CC3)c2)nn1
8.00
Cc1ccc(C(=O)Nc2cc(C(C)(C)C)on2)cc1-n1cc(-c2cncc(NCCN(C)C)c2)nn1
8.15
Cc1ccc(C(=O)Nc2cc(C(F)(F)F)ccn2)cc1-n1cc(-c2cncc(N3CCN(C(C)C)CC3)c2)nn1
8.10
Cc1ccc(NC(=O)c2cc(C)n(C(C)(C)C)n2)cc1-n1cc(-c2cncc(N3CCN(C)CC3)c2)nn1
7.96
Cc1ccc(NC(=O)c2cc(C(C)(C)C)on2)cc1-n1cc(-c2cncc(N3CCOCC3)c2)nn1
8.10
Cc1ccc(C(=O)Nc2cc(C(C)(C)C)on2)cc1-n1cc(-c2cncc(N3CCN(CC(C)C)CC3)c2)nn1
7.89
CCN1CCN(c2cncc(-c3cn(-c4cc(NC(=O)c5cc(C)n(C(C)(C)C)n5)ccc4C)nn3)c2)CC1
8.00
